Source listed as ChEMBL document CHEMBL1765064.

subjectOfTest: Serine-protein kinase ATM (Homo sapiens)
Sequence (Q13315 whole entry): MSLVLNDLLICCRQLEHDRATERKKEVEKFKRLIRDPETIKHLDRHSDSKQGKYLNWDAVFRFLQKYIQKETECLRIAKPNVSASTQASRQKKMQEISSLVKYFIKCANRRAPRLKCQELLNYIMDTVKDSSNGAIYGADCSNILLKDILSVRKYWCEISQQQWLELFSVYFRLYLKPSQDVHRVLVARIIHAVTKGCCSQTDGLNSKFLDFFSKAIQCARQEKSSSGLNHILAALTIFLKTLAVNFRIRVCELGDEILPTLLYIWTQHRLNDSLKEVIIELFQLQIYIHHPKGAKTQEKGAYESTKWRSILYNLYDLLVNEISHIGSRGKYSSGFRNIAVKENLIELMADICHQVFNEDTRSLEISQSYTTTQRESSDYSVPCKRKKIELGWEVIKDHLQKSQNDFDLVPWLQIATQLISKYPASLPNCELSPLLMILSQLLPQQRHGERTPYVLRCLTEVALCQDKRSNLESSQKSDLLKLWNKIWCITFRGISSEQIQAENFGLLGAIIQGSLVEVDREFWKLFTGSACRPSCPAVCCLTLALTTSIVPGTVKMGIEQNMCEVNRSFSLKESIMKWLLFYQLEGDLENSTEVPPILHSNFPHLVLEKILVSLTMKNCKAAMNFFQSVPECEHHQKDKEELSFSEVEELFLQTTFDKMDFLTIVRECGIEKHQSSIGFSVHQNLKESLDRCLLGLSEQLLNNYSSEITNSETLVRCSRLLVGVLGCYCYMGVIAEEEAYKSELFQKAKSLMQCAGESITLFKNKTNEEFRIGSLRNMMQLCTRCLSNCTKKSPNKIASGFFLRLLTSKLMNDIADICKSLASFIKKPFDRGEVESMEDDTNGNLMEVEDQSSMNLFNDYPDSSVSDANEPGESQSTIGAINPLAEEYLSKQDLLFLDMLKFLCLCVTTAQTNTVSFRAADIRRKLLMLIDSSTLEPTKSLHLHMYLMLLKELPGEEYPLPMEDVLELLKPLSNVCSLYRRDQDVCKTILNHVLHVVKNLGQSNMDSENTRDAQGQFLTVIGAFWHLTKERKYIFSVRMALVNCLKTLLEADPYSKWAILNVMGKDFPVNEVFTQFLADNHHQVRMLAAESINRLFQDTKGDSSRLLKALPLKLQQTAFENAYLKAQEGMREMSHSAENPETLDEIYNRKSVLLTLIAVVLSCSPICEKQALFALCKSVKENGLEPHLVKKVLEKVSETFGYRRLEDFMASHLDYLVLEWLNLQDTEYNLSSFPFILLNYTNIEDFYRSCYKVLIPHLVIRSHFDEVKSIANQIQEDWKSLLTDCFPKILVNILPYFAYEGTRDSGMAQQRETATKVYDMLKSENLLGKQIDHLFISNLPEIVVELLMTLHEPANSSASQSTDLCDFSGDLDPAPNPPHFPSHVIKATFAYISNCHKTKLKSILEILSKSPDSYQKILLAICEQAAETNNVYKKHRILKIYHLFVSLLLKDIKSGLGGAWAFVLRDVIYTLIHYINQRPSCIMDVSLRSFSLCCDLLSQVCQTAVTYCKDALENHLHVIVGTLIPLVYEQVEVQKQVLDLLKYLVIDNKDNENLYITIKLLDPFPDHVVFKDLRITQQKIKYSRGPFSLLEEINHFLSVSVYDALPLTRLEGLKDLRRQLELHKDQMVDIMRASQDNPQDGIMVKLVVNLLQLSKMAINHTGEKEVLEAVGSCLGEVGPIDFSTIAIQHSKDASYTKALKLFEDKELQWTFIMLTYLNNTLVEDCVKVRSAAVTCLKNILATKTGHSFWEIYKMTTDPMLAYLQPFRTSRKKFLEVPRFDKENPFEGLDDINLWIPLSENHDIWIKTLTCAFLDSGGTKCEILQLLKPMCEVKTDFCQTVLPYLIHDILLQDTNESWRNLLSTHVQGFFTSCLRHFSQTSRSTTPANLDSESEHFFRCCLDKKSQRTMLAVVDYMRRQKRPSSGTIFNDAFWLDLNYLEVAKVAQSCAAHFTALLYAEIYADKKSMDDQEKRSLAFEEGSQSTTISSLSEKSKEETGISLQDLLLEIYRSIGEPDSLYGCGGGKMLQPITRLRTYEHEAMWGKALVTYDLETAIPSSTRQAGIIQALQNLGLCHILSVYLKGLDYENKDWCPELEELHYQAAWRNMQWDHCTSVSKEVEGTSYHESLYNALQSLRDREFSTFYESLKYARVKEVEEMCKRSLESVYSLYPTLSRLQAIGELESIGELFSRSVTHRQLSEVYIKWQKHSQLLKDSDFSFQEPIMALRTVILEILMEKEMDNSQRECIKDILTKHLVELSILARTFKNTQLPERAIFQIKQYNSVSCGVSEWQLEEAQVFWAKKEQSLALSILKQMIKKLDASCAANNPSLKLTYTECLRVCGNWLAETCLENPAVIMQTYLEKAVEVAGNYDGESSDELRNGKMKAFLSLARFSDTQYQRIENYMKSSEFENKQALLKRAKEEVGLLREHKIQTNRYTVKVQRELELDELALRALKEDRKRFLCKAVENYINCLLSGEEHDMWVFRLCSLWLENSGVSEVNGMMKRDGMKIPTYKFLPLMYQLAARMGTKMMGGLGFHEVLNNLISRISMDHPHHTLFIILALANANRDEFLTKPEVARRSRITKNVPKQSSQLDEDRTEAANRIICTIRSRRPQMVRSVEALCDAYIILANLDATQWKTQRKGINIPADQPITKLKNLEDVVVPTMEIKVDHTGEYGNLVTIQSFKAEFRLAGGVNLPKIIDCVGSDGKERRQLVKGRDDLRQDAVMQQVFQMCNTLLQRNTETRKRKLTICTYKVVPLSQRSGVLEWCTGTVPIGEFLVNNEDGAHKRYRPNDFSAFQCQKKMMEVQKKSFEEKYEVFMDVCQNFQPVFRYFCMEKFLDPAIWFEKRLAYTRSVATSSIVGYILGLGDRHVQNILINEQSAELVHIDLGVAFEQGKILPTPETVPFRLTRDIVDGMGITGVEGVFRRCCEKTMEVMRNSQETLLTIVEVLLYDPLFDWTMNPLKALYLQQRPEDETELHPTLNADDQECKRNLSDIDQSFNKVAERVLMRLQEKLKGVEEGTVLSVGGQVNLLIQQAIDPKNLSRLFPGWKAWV
procedureText: Inhibition of full length recombinant ATM after 24 hrs by radiometric phosphate incorporation assay
valueType: IC50 (µM)
Reply numerically in µM, unit not repeated.

Name the reported IC50 value associated with the molecule N#Cc1ccccc1-c1cnc(N)c(C(=O)Nc2ccccc2)n1
0.32

---
Name the reported IC50 value associated with the molecule Nc1ncc(-c2ccc(S(=O)(=O)[C@@H]3CCOC3)cc2)nc1C(=O)Nc1ccccc1
5

What would you report for CCCS(=O)(=O)c1ccc(-c2cnc(N)c(C(=O)Nc3ccccc3)n2)cc1 ?
5.4

What would you report for CS(=O)(=O)c1ccc(-c2cnc(N)c(-c3nc4ccccc4o3)n2)cc1 ?
0.84

What would you report for COc1cc2c(c(OC)c1OC)-c1c(cc3c(c1OC)OCO3)CC(C)C(C)C2 (stereo not drawn) ?
1740

What would you report for CS(=O)(=O)c1cccc(-c2cnc(N)c(C(=O)Nc3ccccc3)n2)c1 ?
6.6

What would you report for CS(=O)(=O)c1ccc(-c2cnc(N)c(-c3nc4ccccc4[nH]3)n2)cc1 ?
0.38

What would you report for C[S+]([O-])c1ccccc1-c1cnc(N)c(C(=O)Nc2ccccc2)n1 (stereo not drawn) ?
3
